Target: human GPR40 receptor (Homo sapiens)
Sequence (O14842 whole entry): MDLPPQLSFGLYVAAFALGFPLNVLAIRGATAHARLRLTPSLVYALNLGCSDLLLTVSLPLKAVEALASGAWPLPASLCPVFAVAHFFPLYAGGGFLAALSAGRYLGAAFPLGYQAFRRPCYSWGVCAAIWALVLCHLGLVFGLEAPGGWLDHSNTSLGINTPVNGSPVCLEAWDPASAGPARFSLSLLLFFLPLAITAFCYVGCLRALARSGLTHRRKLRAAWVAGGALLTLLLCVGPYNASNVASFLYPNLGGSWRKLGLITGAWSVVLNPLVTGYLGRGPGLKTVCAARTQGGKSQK
Assay: IP1 accumulation measurements using the IPOne assay system
Format: cell-based
Details: IP1 accumulation (IPOne HTRF), 1 hour stimulation; 1321N1 cells stably expressing human GPR40; read-out: EC50 values on GPR40 determined as described in (B)
Description: (B) IP1 accumulation measurements using the IPOne assay system—1321N1 cells stably expressing human GPR40 receptor (Euroscreen, Belgium) were seeded 24 h before the assay in black clear-bottom collagen-coated 384-well plates in culture medium containing 10% FCS, 1% Na-Pyruvate and 400 μg/mL G418. IP1 is assayed according to the Manufacturer's description (Cisbio Bioassays, France). […] After an incubation time of 1 hour at room temperature plates are measured using an EnVision™, Perkin Elmer.
Observation type: EC50 (µM)
Hi! Could you send only the number? It should be in µM, unit omitted.

Example results:
molecule="COC(c1cccc2c1CC[C@H]2Oc1ccc2c(c1)OC[C@H]2CC(=O)O)C(C)(C)C (mixture of isomers) [Example 27]" study_target="human GPR40 receptor (Homo sapiens)" observation_type=EC50 readout_units=µM recorded_number=0.023
molecule="Cc1cccc2cccc(-c3cccc4c3CC[C@H]4Oc3ccc4c(c3)OC[C@H]4CC(=O)O)c12 [Example 92]" study_target="human GPR40 receptor (Homo sapiens)" observation_type=EC50 readout_units=µM recorded_number=0.007
molecule="COCC(F)(F)c1cccc2c1CC[C@H]2Oc1ccc2c(c1)OC[C@H]2CC(=O)O [Example 79]" study_target="human GPR40 receptor (Homo sapiens)" observation_type=EC50 readout_units=µM recorded_number=0.288
molecule="COC(c1cccc2c1CCC2Oc1ccc2c(c1)OCC2CC(=O)O)C(C)(C)C (stereo not shown) [Example 13]" study_target="human GPR40 receptor (Homo sapiens)" observation_type=EC50 readout_units=µM recorded_number=0.043
molecule="O=C(O)C[C@@H]1COc2cc(O[C@H]3CCc4ccc(C(F)(F)F)cc43)ccc21 [Example 50]" study_target="human GPR40 receptor (Homo sapiens)" observation_type=EC50 readout_units=µM recorded_number=2.97

Prompt line: Write down EC50 measured for item O=C(O)C[C@@H]1COc2cc(O[C@@H]3CCc4c(-c5cccnc5C(F)(F)F)cccc43)ccc21 [Example 73]
Response line: 2.72

Prompt line: Write down EC50 measured for item O=C(O)C[C@@H]1COc2cc(O[C@@H]3CCc4c(C5=CCCC56CCOCC6)cccc43)ccc21 [Example 47]
Response line: 0.071

Prompt line: Write down EC50 measured for item COC(c1cccc2c1CCC2Oc1ccc2c(c1)OCC2CC(=O)O)C(F)F (stereo not shown) [Example 11]
Response line: 2.23

Prompt line: Write down EC50 measured for item Cc1cccc(Cl)c1-c1cccc2c1CC[C@H]2Oc1ccc2c(c1)OC[C@H]2CC(=O)O [Example 90]
Response line: 0.036

Prompt line: Write down EC50 measured for item O=C(O)C[C@@H]1COc2cc(O[C@@H]3CCc4c3ccc(C(F)(F)F)c4Cl)ccc21 [Example 98]
Response line: 0.046
